tested on: serum cholesterol; experiment: Serum cholesterol in ovariectomized rats, four day oral dosing; format: in vivo, Sprague Dawley rats; settings: 10 mg/kg PO, daily for 4 days; vs OVX control
experimental_readout: Serum Cholesterol (% decrease OVX) (%)
Kindly provide the numeric value in % only, without the unit symbol.

Recorded Serum Cholesterol (% decrease OVX) of O=C(c1ccc(SCCN2CCCCC2)cc1)c1c(-c2ccc(O)cc2)sc2cc(O)ccc12 , please.
47.5

Another compound to check: O=C(c1ccc(S(=O)(=O)CCN2CCCCC2)cc1)c1c(-c2ccc(O)cc2)sc2cc(O)ccc12
62.3

Further cases:
// query Serum Cholesterol (% decrease OVX) value for entry CN(CCN1CCCCC1)c1ccc(C(=O)c2c(-c3ccc(O)cc3)sc3cc(O)ccc23)cc1
65.1

Repeat with O=C(c1ccc(NCCN2CCCCC2)cc1)c1c(-c2ccc(O)cc2)sc2cc(O)ccc12
42.4

Queued: COc1ccc(-c2sc3cc(OC)ccc3c2C(=O)c2ccc(S(=O)(=O)CCN3CCCCC3)cc2)cc1
28.7
